molecular target: TACE (catalytic domain of the recombinant TACE protein) (Homo sapiens); construct: The catalytic domain of the recombinant TACE protein was expressed and purified; made in house; experiment: TACE FRET assay using TACE Cat; type: biochemical; settings: FRET, pro-TNF-α substrate peptide; read-out: TACE IC50
Sequence (P78536 223-474 limits assumed): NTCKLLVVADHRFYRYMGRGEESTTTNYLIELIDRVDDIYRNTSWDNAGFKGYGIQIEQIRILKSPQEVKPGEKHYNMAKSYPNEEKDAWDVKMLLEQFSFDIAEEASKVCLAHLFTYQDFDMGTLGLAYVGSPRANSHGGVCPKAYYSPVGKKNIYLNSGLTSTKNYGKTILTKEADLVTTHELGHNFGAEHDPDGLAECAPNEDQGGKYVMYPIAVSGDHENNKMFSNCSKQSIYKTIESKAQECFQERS
pIC50: −log10 of the molar value.
endpoint_label: pIC50

Known results for compounds:
Query: Name the recorded pIC50 of the compound listed here: Cc1cc(COc2ccc(S(=O)(=O)N[C@H]3[C@@H](C(=O)NO)[C@@H]4CC[C@H]3O4)cc2)c2ccccc2n1 (relative stereo) [Example 2]
Result: 8.66

Query: Name the recorded pIC50 of the compound listed here: CCNC(=O)N1C[C@H](C(=O)NO)[C@H](NS(=O)(=O)c2ccc(OCc3cc(C)nc4ccccc34)cc2)C1 (relative stereo) [Example 23]
Result: 8.89

Query: Name the recorded pIC50 of the compound listed here: CN(C1C2CCC(C2)C1C(=O)NO)S(=O)(=O)c1ccc(OCc2ccc3nonc3c2)cc1 (stereo in doubt) [Example 40]
Result: 7.25

Query: Name the recorded pIC50 of the compound listed here: Cc1cc(COc2ccc(S(=O)(=O)N[C@@H]3CCN(C(=O)OC(C)(C)C)CC3C(=O)NO)cc2)c2ccccc2n1 (mixture of isomers) [Example 28]
Result: 9.30

Query: Name the recorded pIC50 of the compound listed here: Cc1cc(COc2ccc(S(=O)(=O)N(C)C3C4CCC(C4)C3C(=O)NO)cc2)c2ccccc2n1 (single isomer, unassigned) [Example 1a]
Result: 8.89

[A] Cc1cc(COc2ccc(S(=O)(=O)N(C)[C@H]3[C@@H](C(=O)NO)[C@@H]4CC[C@H]3O4)cc2)c2ccccc2n1 (relative stereo) [Example 3]
[B] CC(=O)N1CC[C@@H](NS(=O)(=O)c2ccc(OCc3cc(C)nc4ccccc34)cc2)[C@@](C)(C(=O)NO)C1 [Example 47]
Query: // select label with min value of measured pIC50 from [ A , B ] Answer = label.
Result: B
